Tested on: 485368-065-R4-J2-PDC spheroids with HUVEC/MSC, viability
Experiment: Anticancer human tumor 485368-065-R4-J2-PDC patient-derived pancreatic carcinoma cell line growth inhibition [CLK]
Details: second compound 0.0316 µM; first compound 0.0316 µM; stronger effect = lower value
measure: viability, T/C (%)
Just the number in %, nothing appended.

For orientation, consider the following solved cases.
[
  {
    "compound": "CC(CO)NC(=O)c1cc(-c2ccc(Cl)cc2)nn(-c2cnn(C)c2)c1=O (centres undefined) + CN1CCN(c2cc(C(=O)Nc3cc4cc(-c5cnn(C)c5)ccc4cn3)ccn2)CC1",
    "value_unit": "%",
    "val": 91.7
  },
  {
    "compound": "CCCS(=O)(=O)Nc1ccc(F)c(C(=O)c2c[nH]c3ncc(-c4ccc(Cl)cc4)cc23)c1F + CN1CCN(c2cc(C(=O)Nc3cc4cc(-c5cnn(C)c5)ccc4cn3)ccn2)CC1",
    "value_unit": "%",
    "val": 112
  },
  {
    "compound": "CC1(C)CCC(CN2CCN(c3ccc(C(=O)NS(=O)(=O)c4ccc(NCC5CCOCC5)c([N+](=O)[O-])c4)c(Oc4cnc5[nH]ccc5c4)c3)CC2)=C(c2ccc(Cl)cc2)C1 + CN1CCN(c2cc(C(=O)Nc3cc4cc(-c5cnn(C)c5)ccc4cn3)ccn2)CC1",
    "value_unit": "%",
    "val": 102
  }
]

# next compound below
Consider the compound shown here: O=c1[nH]cc(F)c(=O)[nH]1 + CN1CCN(c2cc(C(=O)Nc3cc4cc(-c5cnn(C)c5)ccc4cn3)ccn2)CC1 What is its recorded viability, T/C? 99.3

====

Tested on: 485368-065-R4-J2-PDC spheroids with HUVEC/MSC, viability
Assay: Anticancer human tumor 485368-065-R4-J2-PDC cell line growth inhibition [CLK];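 also: spheroids exposed to compounds for seven days; 100% = DMSO vehicle control wells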
Conditions: second compound 0.1 µM; first compound 0.0316 µM; stronger effect = lower value
From the text: A high-throughput screen of multi-cell type tumor spheroids was designed to identify active combinations of […] and targeted small molecules. Complex spheroids include a stromal component modeled by human endothelial cells (HUVEC) and fibroblasts modeled by human mesenchymal stem cells (MSCs). […] Compounds. […] If the clinical Cmax for an agent had not been determined, the highest concentration tested was 10 microM. […]
measure: viability, T/C (%)
Just the number in %, nothing appended.

[
  {
    "molecule": "CC(=O)O[C@H]1C(=O)[C@@]2(C)[C@H]([C@H](OC(=O)c3ccccc3)[C@]3(O)C[C@H](OC(=O)[C@H](O)[C@@H](NC(=O)c4ccccc4)c4ccccc4)C(C)=C1C3(C)C)[C@]1(OC(C)=O)CO[C@@H]1C[C@@H]2O + CN1CCN(c2cc(C(=O)Nc3cc4cc(-c5cnn(C)c5)ccc4cn3)ccn2)CC1",
    "val": 37.3
  }
]

Consider the molecule shown here: COc1ccc([C@@H](O)c2cc(-c3ncnc4cc(N5CCOCC5)ccc34)c(F)cc2Cl)nn1 + CNC(=O)c1ccc(Nc2nc(OC3CCCC3)c3c(-c4ccc5nc(C)oc5c4)c[nH]c3n2)c(OC)c1 What is its recorded viability, T/C? 86.5

Consider the molecule shown here: CCCS(=O)(=O)Nc1ccc(F)c(C(=O)c2c[nH]c3ncc(-c4ccc(Cl)cc4)cc23)c1F + CNC(=O)c1ccc(Nc2nc(OC3CCCC3)c3c(-c4ccc5nc(C)oc5c4)c[nH]c3n2)c(OC)c1 What is its recorded viability, T/C? 100

Consider the molecule shown here: COc1cccc2c1C(=O)c1c(O)c3c(c(O)c1C2=O)CC(O)(C(=O)CO)CC3OC1CC(N)C(O)C(C)O1 (centres undefined) + CNC(=O)c1ccc(Nc2nc(OC3CCCC3)c3c(-c4ccc5nc(C)oc5c4)c[nH]c3n2)c(OC)c1 What is its recorded viability, T/C? 101

Consider the molecule shown here: CC1COCCN1c1cc(C2(S(C)(=N)=O)CC2)nc(-c2ccnc3[nH]ccc23)n1 (centres undefined) + CN1CCN(c2cc(C(=O)Nc3cc4cc(-c5cnn(C)c5)ccc4cn3)ccn2)CC1 What is its recorded viability, T/C? 107
